Provide the reported EC50 of each item.
Tested on: Peroxisome proliferator-activated receptor gamma/Nuclear receptor coactivator 3 (Homo sapiens, UniProt P37231);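 further: agonist potency for raising coactivator recruitment to the receptor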
Sequence (P37231 whole entry): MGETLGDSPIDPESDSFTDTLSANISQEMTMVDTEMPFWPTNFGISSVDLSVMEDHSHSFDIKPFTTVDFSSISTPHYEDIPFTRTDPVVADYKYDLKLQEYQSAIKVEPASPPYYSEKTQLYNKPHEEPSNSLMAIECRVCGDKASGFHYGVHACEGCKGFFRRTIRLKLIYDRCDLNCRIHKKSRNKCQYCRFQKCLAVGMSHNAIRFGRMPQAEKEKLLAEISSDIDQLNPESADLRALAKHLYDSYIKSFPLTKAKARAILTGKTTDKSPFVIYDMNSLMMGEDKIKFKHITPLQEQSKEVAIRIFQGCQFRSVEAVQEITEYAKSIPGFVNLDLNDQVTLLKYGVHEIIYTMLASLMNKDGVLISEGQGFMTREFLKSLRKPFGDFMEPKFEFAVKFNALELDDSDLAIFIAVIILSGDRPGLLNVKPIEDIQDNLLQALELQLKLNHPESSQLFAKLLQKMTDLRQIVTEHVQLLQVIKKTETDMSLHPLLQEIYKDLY
Sequence (Q9Y6Q9 whole entry, further chain): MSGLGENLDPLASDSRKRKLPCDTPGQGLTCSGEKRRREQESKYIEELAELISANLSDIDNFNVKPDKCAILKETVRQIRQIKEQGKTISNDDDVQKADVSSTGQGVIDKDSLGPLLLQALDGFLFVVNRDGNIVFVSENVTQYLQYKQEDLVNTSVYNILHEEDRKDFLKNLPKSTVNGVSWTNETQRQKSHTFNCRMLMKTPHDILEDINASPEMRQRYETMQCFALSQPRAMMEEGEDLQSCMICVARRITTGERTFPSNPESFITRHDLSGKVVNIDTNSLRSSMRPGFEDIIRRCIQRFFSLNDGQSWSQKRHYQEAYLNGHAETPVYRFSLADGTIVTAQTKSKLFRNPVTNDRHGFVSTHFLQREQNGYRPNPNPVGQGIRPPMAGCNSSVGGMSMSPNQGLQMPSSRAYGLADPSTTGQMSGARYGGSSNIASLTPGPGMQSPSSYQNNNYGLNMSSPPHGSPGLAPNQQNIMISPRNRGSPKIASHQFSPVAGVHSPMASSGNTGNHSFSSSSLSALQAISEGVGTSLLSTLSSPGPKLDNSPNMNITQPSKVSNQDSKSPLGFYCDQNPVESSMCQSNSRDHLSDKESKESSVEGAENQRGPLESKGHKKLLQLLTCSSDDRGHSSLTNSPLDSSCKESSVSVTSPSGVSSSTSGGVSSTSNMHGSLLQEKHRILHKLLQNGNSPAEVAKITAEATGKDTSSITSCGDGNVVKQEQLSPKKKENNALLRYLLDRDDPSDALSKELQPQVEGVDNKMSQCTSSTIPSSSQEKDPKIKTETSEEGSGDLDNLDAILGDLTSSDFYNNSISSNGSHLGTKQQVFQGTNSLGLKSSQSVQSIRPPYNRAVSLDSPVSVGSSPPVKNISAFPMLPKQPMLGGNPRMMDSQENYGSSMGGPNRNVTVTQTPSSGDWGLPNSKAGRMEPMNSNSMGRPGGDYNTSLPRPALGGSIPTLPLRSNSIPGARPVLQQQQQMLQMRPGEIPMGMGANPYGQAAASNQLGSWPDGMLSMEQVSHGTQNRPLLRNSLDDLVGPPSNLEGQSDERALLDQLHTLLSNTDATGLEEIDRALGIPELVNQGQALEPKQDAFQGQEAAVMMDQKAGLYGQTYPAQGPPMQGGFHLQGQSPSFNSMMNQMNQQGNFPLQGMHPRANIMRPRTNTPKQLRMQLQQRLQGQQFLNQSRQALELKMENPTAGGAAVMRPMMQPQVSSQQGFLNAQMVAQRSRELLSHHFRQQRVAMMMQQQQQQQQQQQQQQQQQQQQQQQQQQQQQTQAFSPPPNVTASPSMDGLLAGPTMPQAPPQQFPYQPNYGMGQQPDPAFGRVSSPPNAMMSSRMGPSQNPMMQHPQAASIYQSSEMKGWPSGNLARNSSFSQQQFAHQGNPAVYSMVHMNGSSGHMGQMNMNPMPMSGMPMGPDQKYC
Assay type: functional

Fc1ccccc1CSc1nc2ncc(Br)cc2[nH]1 :: 49.5 µM (not active)
CCN(CC)CCN(Cc1cc2cc3c(cc2[nH]c1=O)OCCO3)C(=O)NC1CCCCC1 :: > 79.4 µM (not active)
CCOC(=O)c1s/c(=N\C(=O)c2cccc(OC)c2)n(C)c1C :: 15.2 µM (not active)

// moving on: another record for EC50
Just so you know, measured EC50 for CCOC(=O)c1sc(NC(=O)CSc2nnnn2-c2ccc(C)c(C)c2)nc1C came out at > 79.4 µM (not active)
